test system: Klebsiella pneumoniae; assay: Antibacterial activity against Carbapenem-resistant Klebsiella pneumoniae BM1 clinical isolates assessed as reduction in bacterial growth by broth microdilution method; assay type: functional
Overview of recorded MIC for various compounds
measured property: MIC (µg/mL)

smi: CC[C@H](C)CCCCC(=O)N[C@@H](CCN)C(=O)N[C@H](C(=O)N[C@@H](CCN)C(=O)N[C@H]1CCNC(=O)[C@H](COC)NC(=O)[C@H](CCN)NC(=O)[C@H](CCN)NC(=O)[C@H](CC(C)C)NC(=O)[C@@H](Cc2ccccc2)NC(=O)[C@H](CCN)NC1=O)[C@@H](C)O
measured property: MIC
measurement units: µg/mL
result value: 1
--
smi: CC[C@H](C)CCCCC(=O)N[C@@H](CCN)C(=O)N[C@H](C(=O)N[C@@H](CCN)C(=O)N[C@H]1CCNC(=O)[C@H](C(C)C)NC(=O)[C@H](CCN)NC(=O)[C@H](CCN)NC(=O)[C@H](CC(C)C)NC(=O)[C@@H](Cc2ccccc2)NC(=O)[C@H](CCN)NC1=O)[C@@H](C)O
measured property: MIC
measurement units: µg/mL
result value: 1

====

Overview of recorded MIC for various compounds
tested on: Klebsiella pneumoniae; experiment: Antibacterial activity against Carbapenem-resistant Klebsiella pneumoniae BM1 clinical isolates assessed as reduction in bacterial growth by broth microdilution method; assay type: functional

smi: CC[C@H](C)CCCCC(=O)N[C@@H](CCN)C(=O)N[C@H](C(=O)N[C@@H](CCN)C(=O)N[C@H]1CCNC(=O)[C@H]([C@@H](C)OC)NC(=O)[C@H](CCN)NC(=O)[C@H](CCN)NC(=O)[C@H](CC(C)C)NC(=O)[C@@H](Cc2ccccc2)NC(=O)[C@H](CCN)NC1=O)[C@@H](C)O
qualifier sign: =
MIC, µg/mL: 8
--
smi: CCC[C@@H]1NC(=O)[C@H](CCN)NC(=O)[C@H](CCN)NC(=O)[C@H](CC(C)C)NC(=O)[C@@H](Cc2ccccc2)NC(=O)[C@H](CCN)NC(=O)[C@@H](NC(=O)[C@H](CCN)NC(=O)[C@@H](NC(=O)[C@H](CCN)NC(=O)CCCC[C@@H](C)CC)[C@@H](C)O)CCNC1=O
qualifier sign: =
MIC, µg/mL: 1
--
smi: CC[C@H](C)CCCCC(=O)N[C@@H](CCN)C(=O)N[C@H](C(=O)N[C@@H](CCN)C(=O)N[C@H]1CCNC(=O)[C@H](CCO)NC(=O)[C@H](CCN)NC(=O)[C@H](CCN)NC(=O)[C@H](CC(C)C)NC(=O)[C@@H](Cc2ccccc2)NC(=O)[C@H](CCN)NC1=O)[C@@H](C)O
qualifier sign: =
MIC, µg/mL: 4
--
smi: CC[C@H](C)CCCCC(=O)N[C@@H](CCN)C(=O)N[C@H](C(=O)N[C@@H](CCN)C(=O)N[C@H]1CCNC(=O)[C@H](CC(N)=O)NC(=O)[C@H](CCN)NC(=O)[C@H](CCN)NC(=O)[C@H](CC(C)C)NC(=O)[C@@H](Cc2ccccc2)NC(=O)[C@H](CCN)NC1=O)[C@@H](C)O
qualifier sign: >
MIC, µg/mL: 32
--
smi: CC[C@H](C)CCCCC(=O)N[C@@H](CCN)C(=O)N[C@H](C(=O)N[C@@H](CCN)C(=O)N[C@H]1CCNC(=O)[C@H](C(C)(C)C)NC(=O)[C@H](CCN)NC(=O)[C@H](CCN)NC(=O)[C@H](CC(C)C)NC(=O)[C@@H](Cc2ccccc2)NC(=O)[C@H](CCN)NC1=O)[C@@H](C)O
qualifier sign: =
MIC, µg/mL: 8
--
smi: CC[C@H](C)CCCCC(=O)N[C@@H](CCN)C(=O)N[C@H](C(=O)N[C@@H](CCN)C(=O)N[C@H]1CCNC(=O)[C@H](CC(=O)O)NC(=O)[C@H](CCN)NC(=O)[C@H](CCN)NC(=O)[C@H](CC(C)C)NC(=O)[C@@H](Cc2ccccc2)NC(=O)[C@H](CCN)NC1=O)[C@@H](C)O
qualifier sign: =
MIC, µg/mL: 32
--
smi: CC[C@H](C)CCCCC(=O)N[C@@H](CCN)C(=O)N[C@H](C(=O)N[C@@H](CCN)C(=O)N[C@H]1CCNC(=O)[C@H](CCCN)NC(=O)[C@H](CCN)NC(=O)[C@H](CCN)NC(=O)[C@H](CC(C)C)NC(=O)[C@@H](Cc2ccccc2)NC(=O)[C@H](CCN)NC1=O)[C@@H](C)O
qualifier sign: >
MIC, µg/mL: 32

====

tested on: Pseudomonas aeruginosa; experiment: Antibacterial activity against polymyxin-susceptible Pseudomonas aeruginosa FADD1-PA038 clinical isolates assessed as reduction in bacterial growth by broth microdilution method; type: functional
Overview of recorded MIC for various molecules

smi: CC[C@H](C)CCCCC(=O)N[C@@H](CCN)C(=O)N[C@H](C(=O)N[C@@H](CCN)C(=O)N[C@H]1CCNC(=O)[C@H](Cc2c[nH]cn2)NC(=O)[C@H](CCN)NC(=O)[C@H](CCN)NC(=O)[C@H](CC(C)C)NC(=O)[C@@H](Cc2ccccc2)NC(=O)[C@H](CCN)NC1=O)[C@@H](C)O
qualifier sign: =
MIC / µg/mL: 16

smi: CC[C@H](C)CCCCC(=O)N[C@@H](CCN)C(=O)N[C@H](C(=O)N[C@@H](CCN)C(=O)N[C@H]1CCNC(=O)[C@H](CCN)NC(=O)[C@H](CCN)NC(=O)[C@H](CCN)NC(=O)[C@H](CC(C)C)NC(=O)[C@@H](Cc2ccccc2)NC(=O)[C@H](CCN)NC1=O)[C@@H](C)O
qualifier sign: >
MIC / µg/mL: 32

smi: CC[C@H](C)CCCCC(=O)N[C@@H](CCN)C(=O)N[C@H](C(=O)N[C@@H](CCN)C(=O)N[C@H]1CCNC(=O)[C@H](C(C)C)NC(=O)[C@H](CCN)NC(=O)[C@H](CCN)NC(=O)[C@H](CC(C)C)NC(=O)[C@@H](Cc2ccccc2)NC(=O)[C@H](CCN)NC1=O)[C@@H](C)O
qualifier sign: =
MIC / µg/mL: 2

smi: CC[C@H](C)CCCCC(=O)N[C@@H](CCN)C(=O)N[C@H](C(=O)N[C@@H](CCN)C(=O)N[C@H]1CCNC(=O)CNC(=O)[C@H](CCN)NC(=O)[C@H](CCN)NC(=O)[C@H](CC(C)C)NC(=O)[C@@H](Cc2ccccc2)NC(=O)[C@H](CCN)NC1=O)[C@@H](C)O
qualifier sign: =
MIC / µg/mL: 8

====

tested on: Klebsiella pneumoniae; test: Antibacterial activity against polymyxin-susceptible Klebsiella pneumoniae ATCC 700721 clinical isolates assessed as reduction in bacterial growth by broth microdilution method; assay type: functional
Bridge positions count the residues as written; N and C are the ends. Square brackets hold non-standard residues; d marks the D form. Peptide text beside a SMILES is read from it. * marks the point of attachment. X1 = CC[C@H](C)CCCCC(=O)*; Dab = NCC[C@H](N)C(=O)O

compound: CC[C@H](C)CCCCC(=O)N[C@@H](CCN)C(=O)N[C@H](C(=O)N[C@@H](CCN)C(=O)N[C@H]1CCNC(=O)[C@H](C(C)C)NC(=O)[C@H](CCN)NC(=O)[C@H](CCN)NC(=O)[C@H](CC(C)C)NC(=O)[C@@H](Cc2ccccc2)NC(=O)[C@H](CCN)NC1=O)[C@@H](C)O
study target: Klebsiella pneumoniae
MIC: 8 µg/mL
//
compound: CC[C@H](C)CCCCC(=O)N[C@@H](CCN)C(=O)N[C@H](C(=O)N[C@@H](CCN)C(=O)N[C@H]1CCNC(=O)[C@H](C(C)N=[N+]=[N-])NC(=O)[C@H](CCN)NC(=O)[C@H](CCN)NC(=O)[C@H](CC(C)C)NC(=O)[C@@H](Cc2ccccc2)NC(=O)[C@H](CCN)NC1=O)[C@@H](C)O (stereo partly drawn)
study target: Klebsiella pneumoniae
MIC: 4 µg/mL
//
compound: CC[C@H](C)CCCCC(=O)N[C@@H](CCN)C(=O)N[C@H](C(=O)N[C@@H](CCN)C(=O)N[C@H]1CCNC(=O)[C@H](CCCCN)NC(=O)[C@H](CCN)NC(=O)[C@H](CCN)NC(=O)[C@H](CC(C)C)NC(=O)[C@@H](Cc2ccccc2)NC(=O)[C@H](CCN)NC1=O)[C@@H](C)O
study target: Klebsiella pneumoniae
MIC: > 32 µg/mL
//
compound: CC[C@H](C)CCCCC(=O)N[C@@H](CCN)C(=O)N[C@H](C(=O)N[C@@H](CCN)C(=O)N[C@H]1CCNC(=O)[C@H](CCC(=O)O)NC(=O)[C@H](CCN)NC(=O)[C@H](CCN)NC(=O)[C@H](CC(C)C)NC(=O)[C@@H](Cc2ccccc2)NC(=O)[C@H](CCN)NC1=O)[C@@H](C)O
study target: Klebsiella pneumoniae
MIC: > 32 µg/mL
//
compound: CC[C@H](C)CCCCC(=O)N[C@@H](CCN)C(=O)N[C@H](C(=O)N[C@@H](CCN)C(=O)N[C@H]1CCNC(=O)[C@H]([C@@H](C)OC)NC(=O)[C@H](CCN)NC(=O)[C@H](CCN)NC(=O)[C@H](CC(C)C)NC(=O)[C@@H](Cc2ccccc2)NC(=O)[C@H](CCN)NC1=O)[C@@H](C)O
study target: Klebsiella pneumoniae
MIC: 8 µg/mL
//
compound: CC[C@H](C)CCCCC(=O)N[C@@H](CCN)C(=O)N[C@H](C(=O)N[C@@H](CCN)C(=O)N[C@H]1CCNC(=O)[C@H](Cc2c[nH]c3ccccc23)NC(=O)[C@H](CCN)NC(=O)[C@H](CCN)NC(=O)[C@H](CC(C)C)NC(=O)[C@@H](Cc2ccccc2)NC(=O)[C@H](CCN)NC1=O)[C@@H](C)O
study target: Klebsiella pneumoniae
MIC: 8 µg/mL
//
compound: CC[C@H](C)CCCCC(=O)N[C@@H](CCN)C(=O)N[C@H](C(=O)N[C@@H](CCN)C(=O)N[C@H]1CCNC(=O)[C@H](CCN)NC(=O)[C@H](CCN)NC(=O)[C@H](CCN)NC(=O)[C@H](CC(C)C)NC(=O)[C@@H](Cc2ccccc2)NC(=O)[C@H](CCN)NC1=O)[C@@H](C)O
study target: Klebsiella pneumoniae
MIC: > 32 µg/mL
//
compound: CC[C@H](C)CCCCC(=O)N[C@@H](CCN)C(=O)N[C@H](C(=O)N[C@@H](CCN)C(=O)N[C@H]1CCNC(=O)[C@H](Cc2ccccc2)NC(=O)[C@H](CCN)NC(=O)[C@H](CCN)NC(=O)[C@H](CC(C)C)NC(=O)[C@@H](Cc2ccccc2)NC(=O)[C@H](CCN)NC1=O)[C@@H](C)O
study target: Klebsiella pneumoniae
MIC: 2 µg/mL
//
compound: CC[C@H](C)CCCCC(=O)N[C@@H](CCN)C(=O)N[C@H](C(=O)N[C@@H](CCN)C(=O)N[C@H]1CCNC(=O)[C@H](CCSC)NC(=O)[C@H](CCN)NC(=O)[C@H](CCN)NC(=O)[C@H](CC(C)C)NC(=O)[C@@H](Cc2ccccc2)NC(=O)[C@H](CCN)NC1=O)[C@@H](C)O
study target: Klebsiella pneumoniae
MIC: 4 µg/mL
//
compound: CC[C@H](C)CCCCC(=O)N[C@@H](CCN)C(=O)N[C@H](C(=O)N[C@@H](CCN)C(=O)N[C@H]1CCNC(=O)[C@H](CC(C)C)NC(=O)[C@H](CCN)NC(=O)[C@H](CCN)NC(=O)[C@H](CC(C)C)NC(=O)[C@@H](Cc2ccccc2)NC(=O)[C@H](CCN)NC1=O)[C@@H](C)O (X1-[Dab]T[Dab][Dab][Dab][dF]L[Dab][Dab]L; lactam 4-C)
study target: Klebsiella pneumoniae
MIC: 4 µg/mL
//
compound: CC[C@H](C)CCCCC(=O)N[C@@H](CCN)C(=O)N[C@H](C(=O)N[C@@H](CCN)C(=O)N[C@H]1CCNC(=O)[C@H](CCCNC(=N)N)NC(=O)[C@H](CCN)NC(=O)[C@H](CCN)NC(=O)[C@H](CC(C)C)NC(=O)[C@@H](Cc2ccccc2)NC(=O)[C@H](CCN)NC1=O)[C@@H](C)O
study target: Klebsiella pneumoniae
MIC: 32 µg/mL
//
compound: CC[C@H](C)CCCCC(=O)N[C@@H](CCN)C(=O)N[C@H](C(=O)N[C@@H](CCN)C(=O)N[C@H]1CCNC(=O)[C@H](CC(N)=O)NC(=O)[C@H](CCN)NC(=O)[C@H](CCN)NC(=O)[C@H](CC(C)C)NC(=O)[C@@H](Cc2ccccc2)NC(=O)[C@H](CCN)NC1=O)[C@@H](C)O
study target: Klebsiella pneumoniae
MIC: > 32 µg/mL
//
compound: CC[C@H](C)CCCCC(=O)N[C@@H](CCN)C(=O)N[C@H](C(=O)N[C@@H](CCN)C(=O)N[C@H]1CCNC(=O)[C@H](CCO)NC(=O)[C@H](CCN)NC(=O)[C@H](CCN)NC(=O)[C@H](CC(C)C)NC(=O)[C@@H](Cc2ccccc2)NC(=O)[C@H](CCN)NC1=O)[C@@H](C)O
study target: Klebsiella pneumoniae
MIC: 2 µg/mL
